# assayProtocol: growth suppression of PTEN-deleted HCT116, pilot screen, cell-based, HCT116 clonal line, CellTiter-Glo (AID 824);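 also: 0% = 20 µM Hyamine control and 100% = vehicle cell control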
# runConditions: 60 h, at 10 µM, hits give low values
Results filed as inconclusive are left out.
endpoint: viability (%)
Kindly answer with a numeric value in %, unit omitted.

Recorded viability, per entry:
compound | endpoint | experimentalValue
C(=N\n1cnnc1)/C1CCCCC1 | viability | 98.4
Cn1c(=O)c2c(SCC(=O)c3ccccc3)nc(C3CC3)nc2n(C)c1=O | viability | 77.8
Cc1c(NC(=O)OCc2ccccc2)c(=O)n(-c2ccccc2)n1C | viability | 91.1
COc1ccc(-c2[nH]ncc2-c2cnc(C)s2)c(O)c1 | viability | 98.9
O=C(C1CC1)N1CCCN(C(=O)C2CC2)CC1 | viability | 97.1
COc1ccccc1OCC(=O)NC1CCCCCC1 | viability | 88.8

Per the record, COC(=O)CSc1nc2ccccc2nc1SCC(=O)OC has viability of 92

Per the record, COc1cccc(C(=O)NCCn2ccc3ccccc32)c1 has viability of 90.6

Per the record, CN(C)c1ccc(C2C3C(=O)NC(=O)C3ON2c2ccc(Cl)cc2)cc1 (configuration not stated) has viability of 98.6

---

# assayProtocol: viability gain of MRP-1-high H69AR cells under doxorubicin, pilot screen, MRP-1 activator project, CellTiter-Glo, duplicate (AID 807);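 also: compound pretreatment 18-22 h then 72 h combined with doxorubicin; 0% = doxorubicin alone and 100% = vehicle without doxorubicin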
# runConditions: H69AR viability with doxorubicin, CellTiter-Glo luminescence; at 10 µM; hits give high values
endpoint: viability increase (%)
Kindly answer with a numeric value in %, unit omitted.

Recorded viability increase, per entry:
compound | endpoint | unitText | experimentalValue
COc1cc(OC)c(C2CC(=O)N3CN(C)CSC3=C2C#N)cc1OC (configuration not stated) | viability increase | % | -2.96
O=C(NCCNC(=O)c1ccc(Br)o1)c1ccc(Br)o1 | viability increase | % | 1.39
COc1cc(C(=O)NCCc2cn3ccccc3n2)cc(OC)c1OC | viability increase | % | -2.78
CS(=O)(=O)NCCCc1ccccc1 | viability increase | % | -1.36
COc1ccc(C(=O)O)cc1Nc1cc(C)nc2ncnn12 | viability increase | % | -1.14
O=C(Nc1nnc(-c2ccc3c(c2)CCCC3)o1)C1COc2ccccc2O1 (configuration not stated) | viability increase | % | -2.7
O=C(CN1CCN(C(=O)c2ccco2)CC1)Nc1ccccc1-c1ccccc1 | viability increase | % | -2.16
COc1cccc(C2CC(c3ccccc3OC)n3ncnc3N2)c1 (configuration not stated) | viability increase | % | -5.2
O=C(COC(=O)c1cnccn1)c1ccc(Br)cc1 | viability increase | % | 0.41
Cc1ccc(C)c(N2CCN(C(=O)CCS(=O)(=O)c3cccc4nonc34)CC2)c1 | viability increase | % | -5.38

Per the record, O=C(NCCCc1ccccc1)C1CCN(c2nnc(-n3cccc3)s2)CC1 has viability increase of 3.79

Per the record, CC(C)(C)NCCCCOc1ccc(F)cc1 has viability increase of 0.34

Per the record, O=c1[nH]c(NCCCO)nc2c1C1(CCCC1)Cc1ccccc1-2 has viability increase of -0.94

Per the record, COc1ccc(CN2C(=O)CCC2(C)C(=O)NC2CCCC2)c(OC)c1 (configuration not stated) has viability increase of 0.91

Per the record, CCC(=O)NC(c1ccccc1)c1nc2ccccc2[nH]1 (configuration not stated) has viability increase of -0.96

Per the record, Cc1[nH]c2ccccc2c1SCCN has viability increase of -5.96

Per the record, O=C(O)c1ccccc1SC1CC(=O)N(C2CCCCC2)C1=O (configuration not stated) has viability increase of -2.78

Per the record, CCOc1ccc(NC(=O)Nc2ccc3c(c2)N(C)C(=O)CS3)cc1 has viability increase of -4.56

Per the record, CC1CN(c2nc3c(c(=O)[nH]c(=O)n3C)n2Cc2ccccc2F)CC(C)O1 (configuration not stated) has viability increase of -1.3

Per the record, COc1ccc(O)c(C(=O)c2cnn(C(=O)c3cc(C)oc3C)c2)c1 has viability increase of -1.89

Per the record, Fc1cccc(CSc2nc3ccncc3[nH]2)c1 has viability increase of -0.81

Per the record, O=C(c1ccccc1)c1cccc(NC(=O)c2ccco2)c1 has viability increase of -3.35

Per the record, COc1ccc(-n2ncc3c(N(C)C4CCCCC4)ncnc32)cc1 has viability increase of -3.73

Per the record, Cc1oc(-c2cccs2)nc1CS(=O)CC(=O)NC1CCCCCC1 (configuration not stated) has viability increase of -2.99

Per the record, Cc1ccccc1C(=O)OCn1nnc2ccccc2c1=O has viability increase of -2.87

Per the record, CC1(C)CC(=O)C=C(NC2CC(C)(C)NC(C)(C)C2)C1 has viability increase of -0.93

Per the record, O=C(CN1C(=O)CCC1=O)Nc1nc(-c2ccccn2)cs1 has viability increase of -0.35

Per the record, COc1ccc(N2C(=O)C3CCCN3C2c2ccccc2OC)cc1 (configuration not stated) has viability increase of -3.2

Per the record, CC1(C)CC(=O)c2c(Cc3ccccc3)n[nH]c2C1 has viability increase of -1.7

Per the record, CN(CC(=O)N1CCCCCC1)S(=O)(=O)c1cccc2cccnc12 has viability increase of -4.51

Per the record, CCC(=O)Nc1nnc(-c2ccc(OC)cc2)o1 has viability increase of -1.1
